Below, each of the molecules is paired with its reported viability decrease value.
experiment: growth inhibition of GSK3B-pretreated HCT116 cells – cell-based, CellTiter-Glo, 0.2 to 20 µM (AID 1117336); details: HCT116 viability after GSK3B inhibitor, at 20 µM, stronger effect = higher value
Quick reminder: number only, in %, skip the unit.

Report viability decrease for C[C@@H]1C[C@H]2[C@@H]3CCC4=CC(=O)C=C[C@]4(C)[C@@]3(F)[C@@H](O)C[C@]2(C)[C@@]1(O)C(=O)CO please.
-0.1

May I ask what viability decrease has been recorded for CN1CC(=O)NC1=N ?
-24

GET /values?readout=viability decrease&item= CCN1/C(=C/C=C/c2sc3ccccc3[n+]2CC)Sc2ccccc21
99.1

Next:
# query: viability decrease of entry CC[C@@]1(O)C(=O)OCc2c1cc1n(c2=O)Cc2c-1nc1ccccc1c2/C=N/OC(C)(C)C
-17.1

Which viability decrease value belongs to CCc1cc(S(=O)(=O)O)c2cc(C(C)C)cccc1-2 ?
-5.3

Suppose we examine the molecule C=Cc1ccccc1 ; what viability decrease value has been reported?
-5

----------
experiment: stimulators of nuclear beta-catenin in C2C12, primary screen, imaging, WNT3A-conditioned medium, mouse C2C12, NPC library (AID 1117326); conditions: at 10 µM, stronger effect = higher value
measuredProperty: nuclear beta-catenin stimulation (%)
Give the value in % but do not write % after it.

Worked examples, 6 compounds total:
Sample CCN1C(=O)c2ccccc2C1Nc1ccc(OCCN2CCCCC2)cc1 (configuration not stated) — what was its nuclear beta-catenin stimulation?
0.7

Item under review: COc1ccc2c(c1)CCCC2=O . Reported nuclear beta-catenin stimulation?
1.5

Given Cc1oc(-c2ccccc2)nc1CCC(=O)c1ccc(CC2SC(=O)NC2=O)cc1 (configuration not stated) , state its recorded nuclear beta-catenin stimulation.
3.2

Would you kindly share the measured nuclear beta-catenin stimulation for COC(=O)c1cccnc1 ?
1

If you can, please state the reported nuclear beta-catenin stimulation value of O=C(c1ccco1)N1CCNCC1 .
4.5

Bench note: what nuclear beta-catenin stimulation did Cc1c(C(C)C)c(=O)n(-c2ccccc2)n1C show?
-0.3

Let us examine a further case.
Look at this compound and give its reported nuclear beta-catenin stimulation. CN1CCC(N(Cc2cccs2)c2ccccc2)CC1
-0.3

----------
test: polyglutamine-triggered caspase-3 activation inhibitors, cell-based (AID 1583); conditions: polyglutamine-induced caspase-3 activation, cell assay; stronger effect = higher value;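 tested at 10 µM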
measuredProperty: inhibition (%)
Please state the figure in %; there is no need to write the unit.

// solved cases for inhibition follow
What inhibition value was documented for this compound, CCCNCC(O)COc1ccccc1C(=O)CCc1ccccc1 (stereo not given) ?
-14.1

What inhibition value was documented for this compound, C[C@@H]1O[C@@H](OC[C@H]2O[C@@H](Oc3c(-c4ccc(O)c(O)c4)oc4cc(O)cc(O)c4c3=O)[C@H](O)[C@@H](O)[C@@H]2O)[C@H](O)[C@H](O)[C@H]1O ?
3.3

I would be grateful if you could share the reported inhibition for Clc1ccc2c(c1)C(N1CCNCC1)=Nc1ccccc1O2 .
0.62

Which measured inhibition value corresponds to OCCN1CCN(CCCN2c3ccccc3Sc3ccc(C(F)(F)F)cc32)CC1 ?
-7.66

Continuing:
Fill blank: measured inhibition of the compound Cc1c(OCC(F)(F)F)ccnc1CS(=O)c1nc2ccccc2[nH]1 (stereo not given) is ____.
-8.62

----------
experiment: modulation of C. elegans fzo-1 (AID 1259413);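 further: fzo-1 mutant C. elegans worms in liquid wells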; settings: C. elegans fzo-1 modulator screen, mean read-out; stronger effect = higher value
measuredProperty: mean signal
// no unit, no text: just the number

Would you kindly share the measured mean signal for CC1(C)O[C@@H]2[C@@H](CO[C@@]3(COS(N)(=O)=O)OC(C)(C)O[C@@H]23)O1 ?
229

// returns reported mean signal for input O=C(O)CCCc1ccccc1
232

If you can, please state the reported mean signal value of CC(C)(C)NC[C@H](O)COc1nsnc1N1CCOCC1 .
275

I have this compound here, CN(C)CC/C=C1\c2ccccc2COc2ccccc21 , and I need its recorded mean signal.
222

Requested read-out: mean signal. Entry: CCS(=O)(=O)CCn1c([N+](=O)[O-])cnc1C
232

Others:
Given the entry NC(=O)N1c2ccccc2C=Cc2ccccc21 , report its measured mean signal.
259

GET /values?readout=mean signal&item= Oc1ccc(/C=C/c2cc(O)cc(O)c2)cc1
256

May I ask what mean signal has been recorded for CC1=C(C(=O)O)N2C(=O)[C@@H](NC(=O)[C@H](N)c3ccccc3)[C@H]2SC1 ?
265

Query (compound): O=c1n(CCCN2CCN(c3cccc(Cl)c3)CC2)nc2ccccn12 ; field requested: mean signal
242

Dear colleague, I am looking for the recorded mean signal of the following compound: CN1CCCC(n2nc(Cc3ccc(Cl)cc3)c3ccccc3c2=O)CC1 (stereo unspecified)
269

Recorded mean signal for CC1COc2c(N3CCN(C)CC3)c(F)cc3c(=O)c(C(=O)O)cn1c23 (stereo unspecified) , please?
237

----------
test: inhibitors of polyQ protein aggregation (AID 1604); settings: polyglutamine-induced protein aggregation inhibition assay; stronger effect = higher value; tested at 2.5 µM
Please map values of inhibition of aggregation to classes as shown: A = under 50%, B = from 50% up to 80%, C = 80% and over

The following compounds have reported results that may help.
Kindly identify the class of CC(C)Cc1ccc(C(C)C(=O)O)cc1 (stereo not drawn) .
A

In plain terms, what class is CCn1cc(C(=O)O)c(=O)c2cc(F)c(N3CCNCC3)cc21 ?
B

For CC(=O)OCC[N+](C)(C)C , which inhibition of aggregation bin applies?
B

Next:
State the band of O=C1N=C(O)CN1/N=C/c1ccc(-c2ccc([N+](=O)[O-])cc2)o1
B

Dear colleague, I would appreciate it if you could identify the bin for CCN(CC)CCCC(C)Nc1ccnc2cc(Cl)ccc12 (stereo not drawn) and reply at your convenience.
B

Please indicate the class for CCN(CCO)CCCC(C)Nc1ccnc2cc(Cl)ccc12 (stereo not drawn) based on its inhibition of aggregation.
A

Which category fits this record: O=C(CCCN1CC=C(n2c(=O)[nH]c3ccccc32)CC1)c1ccc(F)cc1
B

Which bin, given its inhibition of aggregation, does NS(=O)(=O)c1cc2c(cc1Cl)NCNS2(=O)=O occupy?
A

Sort into band: C[C@H](CS)C(=O)N1CCC[C@H]1C(=O)O
A

Band for CC(C)NCC(O)c1cc(O)cc(O)c1 (stereo not drawn) ?
C

----------
assay: ovarian cancer cell viability with rucaparib, profiling panel, oncology-focused library, rucaparib conditional (AID 1508598); details: patient-derived ovarian cancer cells, CellTiter-Glo viability, 144 h; at 0.0781 µM; OCI-C5x cells; with rucaparib 10 µM; stronger effect = lower value; 100% = cells with rucaparib alone
measuredProperty: viability (%)
Provide the reading as a plain figure in %.

# example entries with known answers
Would you mind telling me what viability value was observed for O=c1[nH]cc(F)c(=O)[nH]1 ?
103

Fill in: viability of CN(CCOc1ccc(CC2SC(=O)NC2=O)cc1)c1ccccn1 (configuration not stated) is ___
106

Entry under review: Cc1ccc(-c2cc(C(F)(F)F)nn2-c2ccc(S(N)(=O)=O)cc2)cc1 . Reported viability?
114

Entry CC(C)C(=O)Nc1ccc([N+](=O)[O-])c(C(F)(F)F)c1 : reported viability = ?
112

Tell me the measured viability of O=C1CCC(N2C(=O)c3ccccc3C2=O)C(=O)N1 (configuration not stated) , please.
113

---
Which viability is reported for this compound? NC(=O)c1ccc(-c2nc(-c3ccc4c(c3)OCO4)c(-c3ccccn3)[nH]2)cc1
130

Which viability is listed for S=c1nc[nH]c2nc[nH]c12 ?
123

----------
test: ovarian cancer cell viability with rucaparib, profiling panel, oncology-focused library, rucaparib conditional (AID 1508598); settings: patient-derived ovarian cancer cells, CellTiter-Glo viability, 144 h; at 1.25 µM; OCI-P5x cells; with rucaparib 20 µM; stronger effect = lower value; 100% = cells with rucaparib alone
viability values for the molecules below.
Report as a plain number; the unit % is understood.

Can you share its viability? I mean this molecule: S=c1nc[nH]c2nc[nH]c12
87.9

Which measured viability value corresponds to NC(=O)c1ccc(-c2nc(-c3ccc4c(c3)OCO4)c(-c3ccccn3)[nH]2)cc1 ?
114

So what does the record say about viability for CC(C)C(=O)Nc1ccc([N+](=O)[O-])c(C(F)(F)F)c1 ?
101

Using the record for CCCCCCNC(=O)n1cc(F)c(=O)[nH]c1=O , report its viability.
95.1

Form field: reported viability of CCN(CC)C(=S)SSC(=S)N(CC)CC
103

Next:
Query: viability; subject: O=C1CCC(N2C(=O)c3ccccc3C2=O)C(=O)N1 (stereo not drawn)
116

What value of viability has been reported for the following molecule? O=c1[nH]cc(F)c(=O)[nH]1
99.6

// lookup viability for CN(CCOc1ccc(CC2SC(=O)NC2=O)cc1)c1ccccn1 (stereo not drawn)
101
